System Name: WRN helicase (His-WRN527-072) (Homo sapiens)
Sequence (Q14191 527-1072 limits assumed): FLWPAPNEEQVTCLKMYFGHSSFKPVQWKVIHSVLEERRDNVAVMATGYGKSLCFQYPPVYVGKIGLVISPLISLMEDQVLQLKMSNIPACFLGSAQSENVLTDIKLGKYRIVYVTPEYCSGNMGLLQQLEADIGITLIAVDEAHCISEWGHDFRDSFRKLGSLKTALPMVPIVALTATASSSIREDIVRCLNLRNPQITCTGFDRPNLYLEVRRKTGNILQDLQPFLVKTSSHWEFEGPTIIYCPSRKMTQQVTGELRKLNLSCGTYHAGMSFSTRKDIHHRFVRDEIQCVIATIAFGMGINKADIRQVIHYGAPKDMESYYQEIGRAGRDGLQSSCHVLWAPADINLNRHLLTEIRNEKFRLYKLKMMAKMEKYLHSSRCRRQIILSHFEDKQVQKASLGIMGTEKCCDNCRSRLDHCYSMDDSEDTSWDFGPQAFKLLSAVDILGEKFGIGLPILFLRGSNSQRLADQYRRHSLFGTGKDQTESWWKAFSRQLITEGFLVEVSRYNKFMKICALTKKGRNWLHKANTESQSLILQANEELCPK
Property Measured: IC50

Example cases with answers are listed next.
CCc1c(N2CC3CC2CN3C(=O)c2ncnc(C)c2O)c(=O)n2nc(C3=CCOCC3)nc2n1CC(=O)Nc1ccc(C(F)(F)F)cc1Cl (stereo not drawn): 6.4 nM
CCc1c(N2CCN(C(=O)c3ncccc3O)CC2)c(=O)n2nc(C3=CCOCC3)nc2n1CC(=O)Nc1ccc(OC(F)(F)F)cc1: 2.3 nM

QUERY: Endpoint output: IC50 of CCc1c(N2CC3CC(F)C(C2)N3C(=O)c2ncccc2O)c(=O)n2nc(C3=CCOCC3)nc2n1CC(=O)Nc1ccc(C(F)(F)F)cc1C (stereo not drawn) . Value?
RESULT: 10.9 nM
